Experiment: NCI Yeast Anticancer Drug Screen. Data for the mlh1 rad18 strain (AID 175)
Conditions: S. cerevisiae mlh1 rad18 strain growth inhibition; at 50.0 µM; hits give high values
About 79,000 compounds went through this panel and 15% of them were active in at least one assay; those are over-represented in the sample as a whole. Active and inactive are the calls of the source. No stated cut-off is given here; in the data, active means growth inhibition above about 70%; inactive means the rest.
Reported values of growth inhibition for individual entries

# count of solved cases: 3
{"compound": "CCN1CCCC(Cl)C1 (configuration not stated)", "growth inhibition": "5.95% (inactive)"}
{"compound": "CCN(C(=N)C#N)c1ccccc1", "growth inhibition": "27.1% (inactive)"}
{"compound": "C[P+](Cc1ccc([N+](=O)[O-])cc1)(c1ccccc1)c1ccccc1", "growth inhibition": "-7.15% (inactive)"}

Given item C=CCCC(=O)CC(=O)OCC , the value recorded as its growth inhibition is 6.15% (inactive)

Given item COc1ccc(/C=C2\CCCC(C(NO)c3ccc(OC)cc3)C2=NO)cc1 (configuration not stated) , the value recorded as its growth inhibition is 18.2% (inactive)

Given item COC(=O)c1ccc(C(=O)c2ccccc2)cc1 , the value recorded as its growth inhibition is 7.7% (inactive)

Given item COc1cc2c(c(OC)c1OC)-c1ccc(SC)c(=O)cc1[C@@H](NC1OCC(O)C(O)C1O)CC2 (some centres not stated) , the value recorded as its growth inhibition is 16.8% (inactive)

Given item C[N+](C)(C)C1(Cc2ccccc2)c2ccccc2-c2ccc(Cl)cc21 (configuration not stated) , the value recorded as its growth inhibition is 5.9% (inactive)
